Origin of measurements: ChEMBL document CHEMBL1126140

target: Adenosine receptor A1 (Rattus norvegicus, UniProt P25099); assay: Binding affinity against adenosine A1 receptor in rat brain membranes using [3H]-CHA; format: cell membranes
Sequence (P25099 whole entry): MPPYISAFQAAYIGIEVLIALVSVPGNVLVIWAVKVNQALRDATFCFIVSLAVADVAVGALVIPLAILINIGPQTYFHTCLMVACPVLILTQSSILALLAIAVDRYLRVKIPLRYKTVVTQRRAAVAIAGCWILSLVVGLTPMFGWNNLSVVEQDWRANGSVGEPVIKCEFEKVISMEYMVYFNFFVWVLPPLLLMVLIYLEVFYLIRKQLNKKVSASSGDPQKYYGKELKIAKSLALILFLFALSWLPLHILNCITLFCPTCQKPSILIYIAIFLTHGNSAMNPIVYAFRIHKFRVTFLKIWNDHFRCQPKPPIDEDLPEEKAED
pKi: −log10 of the molar value.
RECORDED METRIC: pKi

# MOLECULE, RECORDED METRIC, RECORDED RESULT
data = [
    ("CCCCCCCCCCC#Cc1nc(N)c2ncn(C3O[C@H](CO)[C@@H](O)[C@H]3O)c2n1 (stereo partly specified)", "pKi", 6.57),
]

###

Please consider the recorded Ki for Adenosine A2 receptor (Rattus norvegicus, UniProt P29276+P30543) in what follows.

# COMPOUND, SYSTEM NAME, Ki
rows = [
    ("CCCCCCC#Cc1ncnc2c1ncn2C1O[C@H](CO)[C@@H](O)[C@H]1O (some centres undefined)", "Adenosine A2 receptor (Rattus norvegicus, UniProt P29276+P30543)", "> 567 nM"),
    ("CCCCCCCC#Cc1nc(N)c2ncn([C@@H]3O[C@H](CO)[C@@H](O)[C@H]3O)c2n1", "Adenosine A2 receptor (Rattus norvegicus, UniProt P29276+P30543)", "33.7 nM"),
    ("Nc1nc(C#CCO)nc2c1ncn2[C@@H]1O[C@H](CO)[C@@H](O)[C@H]1O", "Adenosine A2 receptor (Rattus norvegicus, UniProt P29276+P30543)", "20.5 nM"),
    ("C[Si](C)(C)C#Cc1nc(N)c2ncn([C@@H]3O[C@H](CO)[C@@H](O)[C@H]3O)c2n1", "Adenosine A2 receptor (Rattus norvegicus, UniProt P29276+P30543)", "630 nM"),
    ("CC(=O)c1nc(N)c2ncn(C3O[C@H](CO)[C@@H](O)[C@H]3O)c2n1 (some centres undefined)", "Adenosine A2 receptor (Rattus norvegicus, UniProt P29276+P30543)", "> 567 nM"),
    ("C#Cc1nc(N)c2ncn(C3O[C@H](CO)[C@@H](O)[C@H]3O)c2n1 (some centres undefined)", "Adenosine A2 receptor (Rattus norvegicus, UniProt P29276+P30543)", "37.6 nM"),
    ("CCCCCCCCOCCC#Cc1nc(N)c2ncn([C@@H]3O[C@H](CO)[C@@H](O)[C@H]3O)c2n1", "Adenosine A2 receptor (Rattus norvegicus, UniProt P29276+P30543)", "307 nM"),
    ("CCCCCCCCC#Cc1nc(N)c2ncn([C@@H]3O[C@H](CO)[C@@H](O)[C@H]3O)c2n1", "Adenosine A2 receptor (Rattus norvegicus, UniProt P29276+P30543)", "32.8 nM"),
    ("CCOCCCC#Cc1nc(N)c2ncn([C@@H]3O[C@H](CO)[C@@H](O)[C@H]3O)c2n1", "Adenosine A2 receptor (Rattus norvegicus, UniProt P29276+P30543)", "12.8 nM"),
]

###

molecular target: Adenosine A2 receptor (Rattus norvegicus, UniProt P29276+P30543)
Recorded Ki by entry
RECORDED METRIC: Ki

# COMPOUND, RECORDED RESULT
rows = [
    ("CCCCCCC#Cc1nc(O)c2ncn(C3O[C@H](CO)[C@@H](O)[C@H]3O)c2n1 (stereo not given in full)", "> 567 nM"),
    ("CCCCCC/C=C\\c1nc(N)c2ncn(C3O[C@H](CO)[C@@H](O)[C@H]3O)c2n1 (stereo not given in full)", "150 nM"),
    ("CCC#Cc1nc(N)c2ncn([C@@H]3O[C@H](CO)[C@@H](O)[C@H]3O)c2n1", "21.2 nM"),
    ("CCCOCCC#Cc1nc(N)c2ncn(C3O[C@H](CO)[C@@H](O)[C@H]3O)c2n1 (stereo not given in full)", "10.2 nM"),
    ("CCCCCCC#Cc1nc(N)c2[nH]cnc2n1", "> 567 nM"),
]
